Data provenance is the supplement of paper PMC12645437.

Quick reference for log2 fold change of degron read counts among some sequences
TARGET SYSTEM: T1, CRBN, Q96SW2;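 further: pooled lentiviral library of zinc finger degron-EGFP fusions in mCherry-positive Jurkat cells, FACS-sorted after compound exposure, with degron abundance counted by next-generation sequencing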
T1 chain: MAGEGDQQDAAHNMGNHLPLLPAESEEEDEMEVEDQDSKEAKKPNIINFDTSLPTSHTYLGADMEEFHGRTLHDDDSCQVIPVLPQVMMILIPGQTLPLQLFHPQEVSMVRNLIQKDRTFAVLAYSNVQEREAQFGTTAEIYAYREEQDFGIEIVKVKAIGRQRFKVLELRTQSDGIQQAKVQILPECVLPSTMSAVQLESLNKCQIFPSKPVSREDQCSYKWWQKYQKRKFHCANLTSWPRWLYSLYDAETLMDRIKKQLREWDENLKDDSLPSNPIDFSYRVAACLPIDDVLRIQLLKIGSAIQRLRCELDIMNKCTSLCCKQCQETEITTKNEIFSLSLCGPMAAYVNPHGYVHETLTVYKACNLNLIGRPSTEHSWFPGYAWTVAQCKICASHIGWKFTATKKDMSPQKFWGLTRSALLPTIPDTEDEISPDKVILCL
EXPERIMENT SUMMARY: log2 fold change of degron read counts, EGFP-low vs EGFP+ sorted cells (limma voom), compound-induced degradation; higher = more compound-induced degradation of the degron-EGFP fusion; degrons are variants of IKZF1/3 zinc finger 2; compound dose not given here
ASSAY SETUP: Jurkat; 18 h; compound: compound 22 (5-morpholino-thalidomide)
In all, about 8,300 sequences were measured (“log2 fold change of degron read counts, EGFP-low vs EGFP+ sorted cells (limma voom), compound-induced degradation”: median about -1.1, highest 2% from about 3.2 on). The sample holds the highest values, similar sequences and a random draw of the others, so the mix is not that of the screen.
The response must contain the number and no unit.

These solved cases illustrate the format of a correct answer.
FFCEVCGATFTQKGNLLRHIKL [46F_47F_49E_50V_52G_53A_54T_55F_67L_, Q9UKT9]
3.74
FLCEVCGATFTQKGNLLRHIKL [46F_47L_49E_50V_52G_53A_54T_55F_67L_, Q9UKT9]
-1.32
FACPICGAKFTQKGNLLRHIKL [46F_47A_49P_50I_52G_53A_54K_55F_67L_, Q9UKT9]
1.44

Consider now this further sequence.
Provide one value: measured log2 fold change of degron read counts of FQCPICGAKFTQKGNLLRHIKL [46F_47Q_49P_50I_52G_53A_54K_55F_67L_, Q9UKT9]
3
